# experimental details: in vivo
# Design: species or system mice
# test context: male, NODSCID 1L2RγKO, mouse, iv, total radioactivity, Thyroid uptake
Please provide measured tissue uptake at 120 h for the entries that follow.
State just the number; it will be interpreted in %ID/g.

The recorded tissue uptake at 120 h for entry O=C(O)CCC[C@H](NC(=O)N[C@@H](CCCCNC(=O)[C@H](Cc1c2ccccc2cc2ccccc12)NC(=O)[C@H]1CC[C@H](CNC(=O)CN2CCN(CC(=O)O)CCN(CC(=O)O)CCN(CC(=O)O)CC2)CC1)C(=O)O)C(=O)O [177Lu-HTK03149, metal not drawn] equals 0.04

The recorded tissue uptake at 120 h for entry COc1ccc(CCCC(=O)NCC(=O)N[C@@H](CCCCNC(=O)CN2CCN(CC(=O)O)CCN(CC(=O)O)CCN(CC(=O)O)CC2)C(=O)NC[C@H]2CC[C@H](C(=O)N[C@@H](Cc3c4ccccc4cc4ccccc34)C(=O)NCCCC[C@H](NC(=O)N[C@@H](CSCC(=O)O)C(=O)O)C(=O)O)CC2)cc1 [177Lu-HTK04048, metal not drawn] equals 0.19

The recorded tissue uptake at 120 h for entry COc1ccc(CCCC(=O)NCC(=O)N[C@@H](CCCCNC(=O)CN2CCN(CC(=O)O)CCN(CC(=O)O)CCN(CC(=O)O)CC2)C(=O)NC[C@H]2CC[C@H](C(=O)N[C@@H](Cc3c4ccccc4cc4ccccc34)C(=O)NCCCC[C@H](NC(=O)N[C@@H](COCC(=O)O)C(=O)O)C(=O)O)CC2)cc1 [177Lu-HTK04028, metal not drawn] equals 0.13

* * *

Please provide measured tissue uptake at 72 h for the entries that follow.
# experimental details: in vivo
# Parameters: species or system mice
# test context: male, NODSCID 1L2RγKO, mouse, iv, total radioactivity, Blood uptake
Express your answer as a number followed by its unit.

The recorded tissue uptake at 72 h for entry COc1ccc(CCCC(=O)NCC(=O)N[C@@H](CCCCNC(=O)CN2CCN(CC(=O)O)CCN(CC(=O)O)CCN(CC(=O)O)CC2)C(=O)NC[C@H]2CC[C@H](C(=O)N[C@@H](Cc3c4ccccc4cc4ccccc34)C(=O)NCCCC[C@H](NC(=O)N[C@@H](COCC(=O)O)C(=O)O)C(=O)O)CC2)cc1 [177Lu-HTK04028, metal not drawn] equals 0.05 %ID/g

The recorded tissue uptake at 72 h for entry COc1ccc(CCCC(=O)NCC(=O)N[C@@H](CCCCNC(=O)CN2CCN(CC(=O)O)CCN(CC(=O)O)CCN(CC(=O)O)CC2)C(=O)NC[C@H]2CC[C@H](C(=O)N[C@@H](Cc3c4ccccc4cc4ccccc34)C(=O)NCCCC[C@H](NC(=O)N[C@@H](CCCC(=O)O)C(=O)O)C(=O)O)CC2)cc1 [177Lu-HTK03170, metal not drawn] equals 0.06 %ID/g

The recorded tissue uptake at 72 h for entry O=C(O)CCC[C@H](NC(=O)N[C@@H](CCCCNC(=O)[C@H](Cc1c2ccccc2cc2ccccc12)NC(=O)[C@H]1CC[C@H](CNC(=O)CN2CCN(CC(=O)O)CCN(CC(=O)O)CCN(CC(=O)O)CC2)CC1)C(=O)O)C(=O)O [177Lu-HTK03149, metal not drawn] equals 0.07 %ID/g

The recorded tissue uptake at 72 h for entry O=C(O)CCC[C@H](NC(=O)N[C@@H](CCCCNC(=O)[C@H](Cc1c2ccccc2cc2ccccc12)NC(=O)[C@H]1CC[C@H](CNC(=O)[C@H](CCCCNC(=O)CN2CCN(CC(=O)O)CCN(CC(=O)O)CCN(CC(=O)O)CC2)NC(=O)CNC(=O)CCCc2ccc(Cl)cc2)CC1)C(=O)O)C(=O)O [177Lu-HTK03153, metal not drawn] equals 1.46 %ID/g

The recorded tissue uptake at 72 h for entry COc1ccc(CCCC(=O)NCC(=O)N[C@@H](CCCCNC(=O)CN2CCN(CC(=O)O)CCN(CC(=O)O)CCN(CC(=O)O)CC2)C(=O)NC[C@H]2CC[C@H](C(=O)N[C@@H](Cc3c4ccccc4cc4ccccc34)C(=O)NCCCC[C@H](NC(=O)N[C@@H](CSCC(=O)O)C(=O)O)C(=O)O)CC2)cc1 [177Lu-HTK04048, metal not drawn] equals 0.12 %ID/g
